Molecular target: human sodium channels Nav 1.8 (Homo sapiens, UniProt Q9Y5Y9)
Sequence (Q9Y5Y9 whole entry): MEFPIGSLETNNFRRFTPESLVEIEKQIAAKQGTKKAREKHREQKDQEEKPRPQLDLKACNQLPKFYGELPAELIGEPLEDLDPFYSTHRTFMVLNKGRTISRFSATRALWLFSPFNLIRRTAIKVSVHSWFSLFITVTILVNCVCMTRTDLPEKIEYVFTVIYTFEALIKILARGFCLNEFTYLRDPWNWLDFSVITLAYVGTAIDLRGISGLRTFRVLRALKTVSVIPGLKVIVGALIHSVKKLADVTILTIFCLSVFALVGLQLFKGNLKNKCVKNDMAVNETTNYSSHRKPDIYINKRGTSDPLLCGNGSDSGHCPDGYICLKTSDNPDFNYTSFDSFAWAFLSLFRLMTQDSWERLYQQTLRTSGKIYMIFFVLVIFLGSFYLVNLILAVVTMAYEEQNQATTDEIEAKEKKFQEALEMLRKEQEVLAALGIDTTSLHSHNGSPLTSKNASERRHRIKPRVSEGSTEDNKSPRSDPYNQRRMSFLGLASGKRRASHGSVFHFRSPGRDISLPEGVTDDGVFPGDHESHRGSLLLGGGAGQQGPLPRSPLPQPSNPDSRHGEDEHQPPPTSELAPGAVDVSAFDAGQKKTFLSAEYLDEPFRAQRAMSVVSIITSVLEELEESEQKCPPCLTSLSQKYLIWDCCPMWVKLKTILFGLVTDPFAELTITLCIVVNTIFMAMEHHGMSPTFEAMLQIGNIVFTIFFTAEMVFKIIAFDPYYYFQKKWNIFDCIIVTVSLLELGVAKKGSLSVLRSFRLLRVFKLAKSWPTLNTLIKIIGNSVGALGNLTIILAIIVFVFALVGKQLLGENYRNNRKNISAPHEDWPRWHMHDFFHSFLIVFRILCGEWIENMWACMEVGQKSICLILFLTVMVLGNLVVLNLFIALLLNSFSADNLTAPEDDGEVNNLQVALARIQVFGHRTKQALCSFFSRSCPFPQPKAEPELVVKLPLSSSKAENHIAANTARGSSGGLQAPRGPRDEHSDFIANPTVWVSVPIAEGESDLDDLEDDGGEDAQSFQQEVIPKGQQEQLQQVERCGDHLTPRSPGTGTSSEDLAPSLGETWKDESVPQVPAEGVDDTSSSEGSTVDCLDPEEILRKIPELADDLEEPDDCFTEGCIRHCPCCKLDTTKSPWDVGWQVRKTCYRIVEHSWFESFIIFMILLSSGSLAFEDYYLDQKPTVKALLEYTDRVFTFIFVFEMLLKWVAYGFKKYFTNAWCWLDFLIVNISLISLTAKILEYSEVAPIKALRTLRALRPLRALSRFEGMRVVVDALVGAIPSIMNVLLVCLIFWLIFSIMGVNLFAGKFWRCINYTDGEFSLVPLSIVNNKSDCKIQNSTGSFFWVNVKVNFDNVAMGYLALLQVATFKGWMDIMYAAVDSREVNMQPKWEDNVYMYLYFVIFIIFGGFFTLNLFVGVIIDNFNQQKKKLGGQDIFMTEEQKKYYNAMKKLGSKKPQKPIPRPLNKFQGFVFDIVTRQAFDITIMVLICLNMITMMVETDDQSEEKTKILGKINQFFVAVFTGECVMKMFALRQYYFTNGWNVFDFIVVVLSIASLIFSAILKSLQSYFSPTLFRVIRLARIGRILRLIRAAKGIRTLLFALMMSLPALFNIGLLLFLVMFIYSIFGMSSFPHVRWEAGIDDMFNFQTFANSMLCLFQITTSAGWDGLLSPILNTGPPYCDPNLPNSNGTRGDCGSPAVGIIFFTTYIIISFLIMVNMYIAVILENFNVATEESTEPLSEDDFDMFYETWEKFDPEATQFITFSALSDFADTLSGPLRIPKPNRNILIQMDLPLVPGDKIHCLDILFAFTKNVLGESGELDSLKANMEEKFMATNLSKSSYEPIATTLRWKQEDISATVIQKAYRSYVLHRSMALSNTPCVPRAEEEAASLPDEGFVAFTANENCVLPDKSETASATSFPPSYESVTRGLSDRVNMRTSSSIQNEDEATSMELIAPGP
Experiment: Automated whole-cell voltage-clamp (ScreenPatch 384P) sodium current block, Nav 1.8
Details: CHO cells stably expressing human Nav 1.8; inactivation step -40 mV 8 s, test step 10 mV (TP1A); eight concentrations; exposure at least five minutes; room temperature; read-out: Nav1.8 IC50
pIC50: −log10 of the molar value.
Property label: pIC50

Req: Which pIC50 value belongs to COc1cnc(F)c(/C=N/NC(=O)c2cncc(-c3ccc(OCC4CNC4)nc3)n2)c1 ?
Resp: < 6.00

Req: What measured pIC50 goes with CCOc1ccc(-c2cncc(C(=O)N/N=C/c3cc(OC)cnc3F)c2)cn1 ?
Resp: < 6.00

###

Target: UniProt:Q9Y5Y9
Test: Automated whole-cell voltage-clamp (ScreenPatch 384P) sodium current block, Nav 1.8
Details: CHO cells stably expressing human Nav 1.8; inactivation step -40 mV 8 s, test step 10 mV (TP1A); eight concentrations; exposure at least five minutes; room temperature; read-out: Nav1.8 IC50
IC50 for assorted molecules

// worked examples, IC50 included
{"Molecule": "CCOc1ccc(-c2cncc(C(=O)N/N=C/c3ocnc3C)n2)cn1 [Compound 61]", "IC50": "> 1000 nM"}
{"Molecule": "CCOc1ccc(-c2ccnc(C(=O)N/N=C/c3cc(OC)cnc3F)n2)cn1 [Compound 73]", "IC50": "500 to 1000 nM"}
{"Molecule": "CCOc1ccc(-c2cncc(C(=O)N/N=C/c3cc(C(C)O)ccn3)n2)cn1 (centres unmarked) [Compound 31]", "IC50": "> 1000 nM"}
{"Molecule": "CCOc1ccc(-c2cncc(C(=O)N/N=C/c3[nH]ccc3C#N)n2)cn1 [Compound 59]", "IC50": "> 1000 nM"}

Req: API: value(readout= IC50, system= UniProt:Q9Y5Y9, query= CCOc1ccc(-c2cncc(C(=O)N/N=C/c3nc(OC)ccc3F)n2)cn1 [Compound 15] )
Resp: < 500 nM

###

Target: human sodium channels Nav 1.8 (Homo sapiens, UniProt Q9Y5Y9)
Assay: Automated whole-cell voltage-clamp (ScreenPatch 384P) sodium current block, Nav 1.8
Details: CHO cells stably expressing human Nav 1.8; inactivation step -40 mV 8 s, test step 10 mV (TP1A); eight concentrations; exposure at least five minutes; room temperature; read-out: Nav1.8 IC50
Listed here: items and their measured IC50.

Below, each entry is followed by its recorded IC50 result.
{"Compound": "CCOc1ccc(-c2cncc(C(=O)N/N=C/c3cc(OC)cnc3F)n2)c(C)n1", "Target of assay": "human sodium channels Nav 1.8 (Homo sapiens, UniProt Q9Y5Y9)", "Property label": "IC50", "Result": "< 500 nM"}
{"Compound": "CCOc1ccc(-c2cncc(C(=O)N/N=C/c3ccnn3C(C)C)n2)cn1", "Target of assay": "human sodium channels Nav 1.8 (Homo sapiens, UniProt Q9Y5Y9)", "Property label": "IC50", "Result": "< 500 nM"}
{"Compound": "COc1cnc(O)c(/C=N/NC(=O)c2cncc(-c3ccc(OC(F)F)nc3)n2)c1", "Target of assay": "human sodium channels Nav 1.8 (Homo sapiens, UniProt Q9Y5Y9)", "Property label": "IC50", "Result": "> 1000 nM"}
{"Compound": "CCOc1ccc(F)c(/C=N/NC(=O)c2cncc(-c3ccc(OC(F)(F)F)nc3)n2)c1", "Target of assay": "human sodium channels Nav 1.8 (Homo sapiens, UniProt Q9Y5Y9)", "Property label": "IC50", "Result": "< 500 nM"}
{"Compound": "CCOc1ccc(-c2cncc(C(=O)N/N=C/c3cncc(C(C)O)c3)n2)cn1 (stereo not drawn)", "Target of assay": "human sodium channels Nav 1.8 (Homo sapiens, UniProt Q9Y5Y9)", "Property label": "IC50", "Result": "> 1000 nM"}

Req: Give the measured IC50 of COc1cnc(F)c(/C=N/NC(=O)c2cncc(-c3ccc(OCCC4CNC4)nc3)n2)c1 .
Resp: > 1000 nM

Req: Which value of IC50 has been reported for COc1ccc(F)c(/C=N/NC(=O)c2cncc(-c3ccc(C#N)nc3)n2)c1 in the records?
Resp: > 1000 nM

Req: Can you share its IC50? I mean this compound: CCOc1ccc(-c2cncc(C(=O)N/N=C/c3cc(OC4CNC4)ccc3F)n2)cn1
Resp: > 1000 nM

Req: # get_value(readout='IC50', item= CCOc1ccc(-c2cncc(C(=O)N/N=C/c3cc(O)nc(OC)c3)n2)cn1 )
Resp: > 1000 nM

Req: What value of IC50 has been recorded for this entry: COc1ccc(F)c(/C=N/NC(=O)c2cncc(-c3ccc(OC4CNC4)nc3)n2)c1
Resp: > 1000 nM

Req: Form field: reported IC50 of COc1ccc(F)c(/C=N/NC(=O)c2cncc(-c3ccc([S+](C)[O-])nc3)n2)c1 (stereo not drawn)
Resp: 500 to 1000 nM

Req: # lookup: IC50 of CCOc1ccc(-c2cncc(C(=O)N/N=C/c3cncn3C)n2)cn1
Resp: > 1000 nM
